Test system: SK-MEL-5 melanoma
Assay: NCI tumour cell line growth inhibition, 48 h
Catalogue of TGI readings, one per entry.

Worked set:
| compound | TGI |
| --- | --- |
| C=C=C(C(=O)OC)S(=O)c1ccc([N+](=O)[O-])cc1[N+](=O)[O-] (centres undefined) | > 100 µM |
| Cc1ccc2c(c1)C(c1cccc3ccccc13)OC2=O (centres undefined) | > 100 µM |
| CC(=O)OCC=C(CCl)CCC(Br)C(C)(C)Br (mixture of isomers) | > 10 µM |
| Cn1cnc2c(sc3nc4ccccc4n32)c1=N | > 100 µM |
| O=C([CH-]C(=O)C(F)(F)F)c1ccccc1.O=C([CH-]C(=O)C(F)(F)F)c1ccccc1.O=C([CH-]C(=O)C(F)(F)F)c1ccccc1.O=C([CH-]C(=O)C(F)(F)F)c1ccccc1.[Eu+3].c1ccncc1 | > 100 µM |
| Cc1cc(N/N=C/c2nc(-c3ccc(Cl)cc3)oc2C)c2cc(Cl)ccc2n1 | 20.8 µM |

Requested read-out: TGI. Entry: `O=c1oc2ccc(Cl)cc2cc1-c1cn2cc(Cl)ccc2n1`
> 100 µM

The origin of these recorded values is PubChem BioAssay (NCI).
